# assay_system: GRK5 (Homo sapiens)
# Sequence (P34947 whole entry): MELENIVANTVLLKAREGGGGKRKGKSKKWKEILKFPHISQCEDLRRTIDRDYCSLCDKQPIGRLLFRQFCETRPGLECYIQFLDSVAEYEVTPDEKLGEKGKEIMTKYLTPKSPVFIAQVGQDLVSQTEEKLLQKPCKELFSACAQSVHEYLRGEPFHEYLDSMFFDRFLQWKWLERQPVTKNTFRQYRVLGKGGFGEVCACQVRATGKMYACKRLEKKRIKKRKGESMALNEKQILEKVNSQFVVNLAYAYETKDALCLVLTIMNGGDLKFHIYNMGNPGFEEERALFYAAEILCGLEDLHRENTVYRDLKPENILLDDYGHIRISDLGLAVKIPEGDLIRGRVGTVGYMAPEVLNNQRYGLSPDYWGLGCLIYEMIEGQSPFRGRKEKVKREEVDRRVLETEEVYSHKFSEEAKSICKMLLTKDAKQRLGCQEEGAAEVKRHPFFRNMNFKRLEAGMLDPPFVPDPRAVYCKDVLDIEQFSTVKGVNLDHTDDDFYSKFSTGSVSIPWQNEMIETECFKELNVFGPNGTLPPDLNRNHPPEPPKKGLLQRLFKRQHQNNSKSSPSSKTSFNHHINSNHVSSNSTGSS
# assay_info: radiometric GRK5 inhibition assay (tubulin phosphorylation)
attribute_measured: IC50 (nM)
One number for each entry, in nM.

Task: Field: IC50 (GRK5 (Homo sapiens)). Entry: C=CCCNC(=O)c1c(C)[nH]c(/C=C2\C(=O)Nc3ccc(C(=O)N[C@H](C)c4ccccc4)cc32)c1C
Result: 1900

* * *

# assay_system: bovine GRK2 (Bos taurus)
# Sequence (P21146 whole entry): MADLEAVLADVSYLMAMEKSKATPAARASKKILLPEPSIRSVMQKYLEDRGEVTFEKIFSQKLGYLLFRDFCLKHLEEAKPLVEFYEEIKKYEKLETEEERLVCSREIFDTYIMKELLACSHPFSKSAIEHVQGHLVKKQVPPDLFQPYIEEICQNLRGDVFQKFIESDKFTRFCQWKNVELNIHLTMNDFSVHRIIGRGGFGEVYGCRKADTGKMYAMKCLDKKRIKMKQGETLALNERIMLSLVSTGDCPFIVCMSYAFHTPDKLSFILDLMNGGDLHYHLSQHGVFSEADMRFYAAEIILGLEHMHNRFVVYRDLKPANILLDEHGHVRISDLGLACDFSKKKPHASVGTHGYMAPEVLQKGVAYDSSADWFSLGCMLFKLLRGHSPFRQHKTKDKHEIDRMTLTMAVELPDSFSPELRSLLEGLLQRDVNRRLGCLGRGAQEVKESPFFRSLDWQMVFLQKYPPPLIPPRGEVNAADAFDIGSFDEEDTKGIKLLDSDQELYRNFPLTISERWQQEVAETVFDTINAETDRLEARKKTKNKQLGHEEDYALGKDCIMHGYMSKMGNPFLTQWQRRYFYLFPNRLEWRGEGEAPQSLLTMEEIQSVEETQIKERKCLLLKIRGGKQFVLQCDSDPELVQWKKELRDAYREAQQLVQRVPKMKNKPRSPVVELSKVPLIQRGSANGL
# assay_info: radiometric GRK2 inhibition assay (tubulin phosphorylation)
# test_context: read-out: GRK2 IC50; Table 2, μM ± SD
Provide the reported IC50 of each item.
Give bare numbers, in µM.

INSERT INTO assay_data (smiles_data, attribute_measured, reported_measurement) VALUES
  ('Cc1[nH]c(/C=C2\C(=O)Nc3ccc(C(=O)NCc4ccccc4)cc32)c(C)c1NC(=O)CCl', 'IC50', 13);

Respectfully, I request IC50 for each entry included below.
1. Cc1[nH]c(/C=C2\C(=O)Nc3ccc(C(=O)N[C@H](C)c4ccc(F)cc4)cc32)c(C)c1NC(=O)CCl
2. Cc1[nH]c(/C=C2\C(=O)Nc3ccc(C(=O)N[C@H](C)c4ccc(F)cc4)cc32)c(C)c1NC(=O)CBr
3. Cc1[nH]c(/C=C2\C(=O)Nc3ccc(C(=O)N[C@H](C)c4ccc(Cl)cc4)cc32)c(C)c1NC(=O)CCl

Result:
1. 4.8
2. 3.6
3. 0.7

Origin of measurements: patent US20230212120A1
